# Organism: Oryctolagus cuniculus
# experimental protocol: Concentration required to inhibit PAF-induced maximum aggregation by 50%
# Type: functional
measurement name: pIC50
// pIC50: -log10(molar conc.)

Worked cases, pIC50 given:
>>> print(df.to_string())
                                   molecule  observed_value
0  CCOC(=O)[C@H](CC(C)C)N(C(=O)c1ccc(/N=N\c2ccc(O)c(C(=O)O)c2)cc1)S(=O)(=O)c1ccc(Cn2c(C)nc3cnccc32)cc1            5.83
1  Cc1nc2cnccc2n1CC1CCN(C(=O)NCc2ccc(N)cc2)CC1            5.81

QUERY: Find the recorded pIC50 belonging to Cc1nc2cnccc2n1CC1CCN(C(=O)CN(c2ccccc2)S(=O)(=O)c2ccc(N)cc2)CC1 and report it.
RESULT: 7.12

QUERY: Record request: pIC50 value, item CCOC(=O)C(CC(=O)N1CCC(Cn2c(C)nc3cnccc32)CC1)c1ccc(N)cc1 (centres undefined)
RESULT: 7.13

QUERY: Requested field: pIC50. Item: CCOC(=O)[C@H](Cc1ccc(N)cc1)NC(=O)N1CCC(Cn2c(C)nc3cnccc32)CC1
RESULT: 7.49

QUERY: Reported pIC50 for Cc1nc2cnccc2n1CC1CCN(C(=O)CN(CC(C)C)S(=O)(=O)c2ccc(N)cc2)CC1 : what is it?
RESULT: 6.21

QUERY: Find the recorded pIC50 belonging to Cc1nc2cnccc2n1CC1CCN(C(=O)/C=C(/c2ccccc2)c2ccc(/N=N\c3ccc(O)c(C(=O)O)c3)cc2)CC1 and report it.
RESULT: 5.39

QUERY: Please report the recorded pIC50 for Cc1nc2cnccc2n1CC1CCN(C(=O)/C=C(/c2ccccc2)c2ccc(N)cc2)CC1 .
RESULT: 8.10
